target: HLA-A*80:01; test: IEDB peptide-MHC binding, purified MHC/direct/fluorescence; filed as Kd, often an IC50 or EC50 that approximates it; bounds were set here for any values at or beyond the usual limits of such assays; conditions: source organism: Yellow fever virus
experimentalReadout: Kd (nM)
Please state the figure in nM; there is no need to write the unit.

Kindly note: HLA-A*80:01, NRDGDSYYY , Kd value reported: 478

---

target: HLA-A*68:02; assay: IEDB peptide-MHC binding, purified MHC/competitive/radioactivity; filed as Kd, often an IC50 or EC50 that approximates it; bounds were set here for any values at or beyond the usual limits of such assays; conditions: source organism: Dengue virus 3 Sri Lanka/1266/2000
experimentalReadout: Kd (nM)
Return type: number; implicit unit nM.

Record TVAAMGVPPL ; system HLA-A*68:02; Kd = 19.8

---

The entries below come with measured pKd values attached.
biological target: HLA-A*69:01; experiment: IEDB peptide-MHC binding, purified MHC/direct/fluorescence; filed as Kd, often an IC50 or EC50 that approximates it; bounds were set here for any values at or beyond the usual limits of such assays; details: source organism: Mycobacterium tuberculosis
# reply with the number alone; pKd is -log10 of concentration in mol/L

Reference set (2 entries):
FLQGAKWYL : 6.33
LLGQNTPAI : 5.92

Read the next record carefully.
Given item LLDEGKQSL , the value recorded as its pKd is 5.15

---

target: HLA-B*45:06; assay: IEDB peptide-MHC binding, purified MHC/competitive/fluorescence; filed as Kd, often an IC50 or EC50 that approximates it; bounds were set here for any values at or beyond the usual limits of such assays; conditions: source organism: Shigella flexneri 5 str. 8401
pKd: −log10 of the molar value.
experimentalReadout: pKd

Measured pKd (HLA-B*45:06), entry HEWKIPLLI : ≤ 5.30

---

molecular target: HLA-B*15:03; experiment: IEDB peptide-MHC binding, purified MHC/competitive/radioactivity; filed as Kd, often an IC50 or EC50 that approximates it; bounds were set here for any values at or beyond the usual limits of such assays; conditions: source organism: Vaccinia virus Copenhagen
experimentalReadout: pKd
Scale explanation: pKd corresponds to minus log10 of a concentration expressed in moles per litre.

VSFSPSLTF : 8.91
SPGIRPRFL : 4.99

get_value(item= LIPFLILFI , readout=pKd) returns 6.71

---

molecular target: HLA-A*68:01; test: IEDB peptide-MHC binding, purified MHC/competitive/radioactivity; filed as Kd, often an IC50 or EC50 that approximates it; bounds were set here for any values at or beyond the usual limits of such assays; conditions: source organism: SARS coronavirus Tor2
experimentalReadout: pKd
In simple prose, pKd is minus the logarithm base ten of a concentration in moles per litre.

Take a look at these entries with their results.
TLNVLAWLY : 4.88
GVTFQGKFKK : 5.73
TTTSTALGK : 7.55
FFTYLCGFIK : 6.69
RLCLFDRYFK : 6.06

Measured pKd (HLA-A*68:01), entry AVVYRGTTTY : 6.06

---

biological target: HLA-B*07:02; assay: IEDB peptide-MHC binding, purified MHC/direct/fluorescence; filed as Kd, often an IC50 or EC50 that approximates it; bounds were set here for any values at or beyond the usual limits of such assays; settings: source organism: Corynebacterium glutamicum
experimentalReadout: Kd (µM)
Expressed in µM, but write only the number.

For ATQPVHWFL the sequence record lists Kd as 6.67

---

target: HLA-B*51:01; assay: IEDB peptide-MHC binding, purified MHC/competitive/fluorescence; filed as Kd, often an IC50 or EC50 that approximates it; bounds were set here for any values at or beyond the usual limits of such assays; details: source organism: Choclo virus
experimentalReadout: Kd

KACDLAMCY yielded Kd of ≥ 20 µM

---

biological target: HLA-B*53:01; assay: IEDB peptide-MHC binding, purified MHC/competitive/radioactivity; filed as Kd, often an IC50 or EC50 that approximates it; bounds were set here for any values at or beyond the usual limits of such assays; conditions: source organism: Dengue virus 3 Martinique/1243/1999
experimentalReadout: pKd
# pKd is unitless: minus log10 of the molar concentration; print number only

The value of pKd recorded for LPEYGTLGL when tested on HLA-B*53:01 reads 6.26

---

molecular target: HLA-A*01:01; experiment: IEDB peptide-MHC binding, purified MHC/direct/fluorescence; filed as Kd, often an IC50 or EC50 that approximates it; bounds were set here for any values at or beyond the usual limits of such assays; details: source organism: Camelpox virus CMS
experimentalReadout: Kd

// recorded Kd for MPAYIRNTL : ≥ 20 µM

---

target: HLA-A*03:01; experiment: IEDB peptide-MHC binding, purified MHC/direct/fluorescence; filed as Kd, often an IC50 or EC50 that approximates it; bounds were set here for any values at or beyond the usual limits of such assays; settings: source organism: Salmonella enterica
experimentalReadout: Kd

For record EIIFYHPTF the listed Kd is ≥ 20 µM

---

target: HLA-A*03:01; assay: IEDB peptide-MHC binding, purified MHC/competitive/radioactivity; filed as Kd, often an IC50 or EC50 that approximates it; bounds were set here for any values at or beyond the usual limits of such assays; details: source organism: Dengue virus 2 Peru/IQT2913/1996
experimentalReadout: pKd
Keep in mind that pKd stands for -log10 of concentration in molar terms.

# pKd (sequence: ALNDTWKIEK ) is 7.22

---

target: HLA-A*24:02; assay: IEDB peptide-MHC binding, purified MHC/direct/fluorescence; filed as Kd, often an IC50 or EC50 that approximates it; bounds were set here for any values at or beyond the usual limits of such assays; conditions: source organism: Influenza A virus (A/quail/Hong Kong/FY298/00(H9N2))
experimentalReadout: Kd

According to the records, this sequence ALTLNTMTK displays Kd of ≥ 20 µM

---

biological target: HLA-A*02:06; assay: IEDB peptide-MHC binding, purified MHC/competitive/fluorescence; filed as Kd, often an IC50 or EC50 that approximates it; bounds were set here for any values at or beyond the usual limits of such assays; details: source organism: Encephalitozoon cuniculi GB-M1
experimentalReadout: pKd
pKd is a log-scale quantity: -log10 of the concentration expressed in molar.

Reported pKd (HLA-A*02:06) for entry ALEEGRKYV is 8.06

---

target: HLA-B*57:01; assay: IEDB peptide-MHC binding, purified MHC/direct/fluorescence; filed as Kd, often an IC50 or EC50 that approximates it; bounds were set here for any values at or beyond the usual limits of such assays; details: source organism: Burkholderia mallei
experimentalReadout: Kd

Response field Kd (HLA-B*57:01) for item FEIGNGDAG : ≥ 20 µM

---

target: HLA-A*32:07; assay: IEDB peptide-MHC binding, purified MHC/competitive/fluorescence; filed as Kd, often an IC50 or EC50 that approximates it; bounds were set here for any values at or beyond the usual limits of such assays; details: source organism: Brucella suis 1330
experimentalReadout: pKd
Keep it numeric: pKd is minus log10 of the concentration in mol/L.

The value of pKd measured for the sequence RQNAPFEPI turned out to be 7.92

---

biological target: HLA-B*15:02; assay: IEDB peptide-MHC binding, purified MHC/direct/fluorescence; filed as Kd, often an IC50 or EC50 that approximates it; bounds were set here for any values at or beyond the usual limits of such assays; conditions: source organism: Bacillus anthracis str. A0389
experimentalReadout: pKd
Reminder that pKd is minus the log10 of a molar concentration.

Per the reported HLA-B*15:02 data, KLYVNGKAY has pKd of 6.93

---

Overview of recorded Kd for various sequences
molecular target: HLA-B*15:01; assay: IEDB peptide-MHC binding, purified MHC/direct/fluorescence; filed as Kd, often an IC50 or EC50 that approximates it; bounds were set here for any values at or beyond the usual limits of such assays; settings: source organism: Giardia lamblia ATCC 50803

Known Kd results, listed for orientation:
IARLVYKAR : ≥ 20 µM
EIRHRSGIQ : ≥ 20 µM

Consider the additional sequence presented here.
// sample WSDLNTTDF , its Kd was ≥ 20 µM

---

target: HLA-A*26:02; assay: IEDB peptide-MHC binding, purified MHC/competitive/fluorescence; filed as Kd, often an IC50 or EC50 that approximates it; bounds were set here for any values at or beyond the usual limits of such assays; conditions: source organism: Human immunodeficiency virus 1
experimentalReadout: Kd (µM)
Numeric only. Scale: µM

Known value: HLA-A*26:02 Kd of the sequence RSLFNTVAVLY equals 3.07

---

molecular target: HLA-B*35:01; experiment: IEDB peptide-MHC binding, purified MHC/direct/fluorescence; filed as Kd, often an IC50 or EC50 that approximates it; bounds were set here for any values at or beyond the usual limits of such assays; settings: source organism: Bacillus anthracis str. A0389
experimentalReadout: pKd
pKd is a log-scale quantity: -log10 of the concentration expressed in molar.

Entry KLYVNGKAY ; pKd = 5.79
